Some binders, each annotated with its measured EC50.
- tested.on: T1, Placenta Growth Factor (PlGF), human (human, UniProt P49763 21-149)
- T1 chain: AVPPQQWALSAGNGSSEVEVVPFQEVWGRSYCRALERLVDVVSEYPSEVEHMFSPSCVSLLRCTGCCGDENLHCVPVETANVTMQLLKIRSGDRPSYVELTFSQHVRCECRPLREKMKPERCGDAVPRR
- assay.info: ELISA
Quick reminder: number only, in nM, skip the unit.

{"columns": ["binder", "quantity.name", "test.value"],
 "data": [
  ["HC 4/SLC 2 (antibody) chain 1: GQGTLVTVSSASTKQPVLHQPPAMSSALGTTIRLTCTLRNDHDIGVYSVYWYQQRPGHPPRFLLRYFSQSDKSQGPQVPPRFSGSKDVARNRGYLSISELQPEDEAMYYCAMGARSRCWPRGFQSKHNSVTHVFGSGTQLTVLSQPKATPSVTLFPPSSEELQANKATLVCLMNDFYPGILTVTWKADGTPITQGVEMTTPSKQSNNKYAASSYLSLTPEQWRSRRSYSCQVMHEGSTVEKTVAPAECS chain 2: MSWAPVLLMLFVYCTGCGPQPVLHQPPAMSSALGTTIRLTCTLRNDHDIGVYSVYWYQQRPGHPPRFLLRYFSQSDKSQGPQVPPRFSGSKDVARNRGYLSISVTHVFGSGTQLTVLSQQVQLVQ", "EC50", 0.188],
  ["HC 9/SLC 9 (antibody) chain 1: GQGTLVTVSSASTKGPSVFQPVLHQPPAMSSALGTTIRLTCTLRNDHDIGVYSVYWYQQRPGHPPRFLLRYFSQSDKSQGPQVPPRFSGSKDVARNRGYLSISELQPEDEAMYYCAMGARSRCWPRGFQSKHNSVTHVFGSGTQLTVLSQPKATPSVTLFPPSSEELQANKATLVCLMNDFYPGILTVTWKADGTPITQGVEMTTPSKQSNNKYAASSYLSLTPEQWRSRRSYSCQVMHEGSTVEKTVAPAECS chain 2: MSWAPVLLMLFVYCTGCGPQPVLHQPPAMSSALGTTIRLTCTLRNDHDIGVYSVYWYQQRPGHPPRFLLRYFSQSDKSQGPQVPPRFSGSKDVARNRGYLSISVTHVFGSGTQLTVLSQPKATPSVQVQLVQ", "EC50", 0.046],
  ["HC 9/SLC 15 (antibody) chain 1: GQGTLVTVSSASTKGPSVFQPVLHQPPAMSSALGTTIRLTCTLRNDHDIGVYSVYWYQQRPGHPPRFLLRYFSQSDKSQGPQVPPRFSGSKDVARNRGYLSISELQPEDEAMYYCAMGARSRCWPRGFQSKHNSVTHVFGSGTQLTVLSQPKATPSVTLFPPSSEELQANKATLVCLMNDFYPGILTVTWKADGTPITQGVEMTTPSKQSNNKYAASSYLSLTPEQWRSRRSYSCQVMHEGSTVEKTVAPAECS chain 2: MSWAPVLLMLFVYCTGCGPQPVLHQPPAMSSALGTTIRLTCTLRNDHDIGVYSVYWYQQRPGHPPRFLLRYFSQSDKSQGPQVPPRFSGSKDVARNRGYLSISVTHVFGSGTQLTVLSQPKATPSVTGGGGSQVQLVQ", "EC50", 0.047],
  ["HC 9/SLC 6 (antibody) chain 1: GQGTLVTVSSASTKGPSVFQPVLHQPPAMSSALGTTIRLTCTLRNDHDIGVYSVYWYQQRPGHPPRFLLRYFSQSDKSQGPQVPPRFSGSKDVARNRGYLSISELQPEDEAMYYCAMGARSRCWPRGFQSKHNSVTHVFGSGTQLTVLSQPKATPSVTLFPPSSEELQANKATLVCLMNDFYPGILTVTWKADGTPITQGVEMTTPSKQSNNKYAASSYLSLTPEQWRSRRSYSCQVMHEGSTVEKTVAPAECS chain 2: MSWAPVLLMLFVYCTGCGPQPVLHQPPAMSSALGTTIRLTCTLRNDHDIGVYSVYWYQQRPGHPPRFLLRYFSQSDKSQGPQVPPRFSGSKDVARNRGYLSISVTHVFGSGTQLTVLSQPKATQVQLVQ", "EC50", 0.096]
]}

Inquiry: Would you mind telling me what EC50 value was observed for HC 3/SLC 3 (antibody) chain 1: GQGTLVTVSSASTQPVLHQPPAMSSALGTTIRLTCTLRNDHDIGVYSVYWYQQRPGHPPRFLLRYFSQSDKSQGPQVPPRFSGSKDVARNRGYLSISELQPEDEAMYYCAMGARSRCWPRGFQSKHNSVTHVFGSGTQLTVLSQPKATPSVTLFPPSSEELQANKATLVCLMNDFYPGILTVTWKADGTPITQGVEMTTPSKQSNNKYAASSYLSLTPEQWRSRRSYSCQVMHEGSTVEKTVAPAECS chain 2: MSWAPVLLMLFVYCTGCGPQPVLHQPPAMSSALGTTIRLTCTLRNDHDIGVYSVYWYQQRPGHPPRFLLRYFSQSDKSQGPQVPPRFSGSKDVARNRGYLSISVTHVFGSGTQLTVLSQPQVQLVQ ?
Reply text: 0.135

Inquiry: Would you mind telling me what EC50 value was observed for HC 7/SLC 9 (antibody) chain 1: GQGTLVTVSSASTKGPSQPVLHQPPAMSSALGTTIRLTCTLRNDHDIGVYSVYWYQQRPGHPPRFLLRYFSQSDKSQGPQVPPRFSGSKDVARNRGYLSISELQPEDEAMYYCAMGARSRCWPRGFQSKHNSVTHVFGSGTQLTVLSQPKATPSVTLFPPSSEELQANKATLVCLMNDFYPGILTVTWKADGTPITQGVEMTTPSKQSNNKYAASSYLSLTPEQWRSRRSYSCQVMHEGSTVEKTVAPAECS chain 2: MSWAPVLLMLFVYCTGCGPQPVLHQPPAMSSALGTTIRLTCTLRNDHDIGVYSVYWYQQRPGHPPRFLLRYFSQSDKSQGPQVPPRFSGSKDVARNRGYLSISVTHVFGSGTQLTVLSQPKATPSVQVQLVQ ?
Reply text: 0.057

Inquiry: Would you mind telling me what EC50 value was observed for HC 3/SLC 9 (antibody) chain 1: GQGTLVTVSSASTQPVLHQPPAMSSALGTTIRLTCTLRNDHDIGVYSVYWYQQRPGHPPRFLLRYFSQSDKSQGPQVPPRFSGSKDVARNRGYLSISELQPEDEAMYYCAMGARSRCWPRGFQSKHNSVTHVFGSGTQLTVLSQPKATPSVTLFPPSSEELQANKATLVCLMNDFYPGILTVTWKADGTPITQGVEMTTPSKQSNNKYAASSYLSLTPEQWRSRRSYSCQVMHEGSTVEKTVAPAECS chain 2: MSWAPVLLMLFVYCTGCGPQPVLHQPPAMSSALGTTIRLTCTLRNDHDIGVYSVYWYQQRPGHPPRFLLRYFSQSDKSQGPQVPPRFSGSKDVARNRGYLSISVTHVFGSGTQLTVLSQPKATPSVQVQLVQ ?
Reply text: 0.13
